Target: Recombinant human Bcl-2 protein (Homo sapiens (Human), UniProt P10415)
Assay: Bcl-2 TR-FRET Assay
Format: binding
Conditions: Bcl-2 wild type, TR-FRET; read-out: Biochemical assay (IC50, nM) Bcl-2 WT
Criterion: IC50 strictly under 0.05 nM. Met: YES. Not met: NO.

input: Identify whether the compound [2H]C([2H])([2H])Oc1ccc(CN2CCN(C3CC4(C3)CN(c3ccc(C(=O)NS(=O)(=O)c5ccc(NC[C@H]6CC[C@](C)(O)CC6)c([N+](=O)[O-])c5)c(Oc5cnc6[nH]cc(F)c6c5)c3)C4)[C@H](c3ccccc3C(C)C)C2)cc1 records IC50 below 0.05 nM.
output: NO

input: Identify whether the compound CC(C)c1ccccc1C1CN(Cc2ccc3c(c2)OC(F)(F)O3)CCN1C1CC2(CCN(c3ccc(C(=O)NS(=O)(=O)c4ccc(NC[C@H]5CC[C@](C)(O)CC5)c([N+](=O)[O-])c4)c(Oc4cnc5[nH]ccc5c4)c3)CC2)C1 (some centres unmarked) records IC50 below 0.05 nM.
output: NO

input: Identify whether the compound COc1ccc(CN2CCN(C3CC4(CCN(c5ccc(C(=O)NS(=O)(=O)c6ccc(NC[C@H]7CC[C@](C)(O)CC7)c([N+](=O)[O-])c6)c(Oc6cnc7[nH]ccc7c6)c5)CC4)C3)[C@H](c3ccccc3C(C)C)C2)cn1 records IC50 below 0.05 nM.
output: YES

input: Identify whether the compound COc1ccc(CN(C)C2CCN(C3CC4(CCN(c5ccc(C(=O)NS(=O)(=O)c6ccc(NC[C@H]7CC[C@](C)(O)CC7)c([N+](=O)[O-])c6)c(Oc6cnc7[nH]ccc7c6)c5)CC4)C3)C(c3ccccc3C3CC3)C2)cc1 (some centres unmarked) records IC50 below 0.05 nM.
output: NO

input: Identify whether the compound COc1cc(CN2CCN(C3CC4(C3)CN(c3ccc(C(=O)NS(=O)(=O)c5ccc(NC[C@H]6CC[C@](C)(O)CC6)c([N+](=O)[O-])c5)c(Oc5cnc6[nH]cc(F)c6c5)c3)C4)[C@H](c3ccccc3C(C)C)C2)cc2c1OCCC2(F)F records IC50 below 0.05 nM.
output: NO

input: Identify whether the compound COc1ccc(CN2CCN(C3CC4(CCN(c5ccc(C(=O)NS(=O)(=O)c6ccc(NC[C@H]7CC[C@](C)(O)CC7)c([N+](=O)[O-])c6)c(Oc6cnc7[nH]ccc7c6)c5)CC4)C3)[C@H](c3ccccc3C(C)C)C2)c(OC)c1 (single isomer, unassigned) [Example 48a] records IC50 below 0.05 nM.
output: YES

input: Identify whether the compound COc1cc(CN2CCN(C3CC4(CCN(c5ccc(C(=O)NS(=O)(=O)c6ccc(NC[C@H]7CC[C@](C)(O)CC7)c([N+](=O)[O-])c6)c(Oc6cnc7[nH]cc(F)c7c6)c5)CC4)C3)[C@H](c3ccccc3C(C)C)C2)ccc1C(F)(F)F records IC50 below 0.05 nM.
output: NO

* * *

Target: recombinant human Bcl-2-G101V protein (Homo sapiens (Human), UniProt P10415, G101V)
Assay: Bcl-2-G101V TR-FRET Assay
Format: binding
Conditions: Bcl-2 G101V mutant, TR-FRET; read-out: Biochemical assay (IC50, nM) Bcl-2 G101V
readout kind: log10 of IC50 (log10 of the value in nM)
Hello, just confirming the data are log10 of IC50 with units of nM.

input: Given the molecule COc1cc(CN2CCN(C3CC4(CCN(c5ccc(C(=O)NS(=O)(=O)c6ccc(NC[C@H]7CC[C@](C)(O)CC7)c([N+](=O)[O-])c6)c(Oc6cnc7[nH]ccc7c6)c5)CC4)C3)[C@H](c3ccccc3C(C)C)C2)ccc1C(F)F , what is its reported log10 of IC50?
output: 0.11

input: Given the molecule Cc1ccc(CN2CCN(C3CC4(CCN(c5ccc(C(=O)NS(=O)(=O)c6ccc(NC[C@H]7CC[C@](C)(O)CC7)c([N+](=O)[O-])c6)c(Oc6cnc7[nH]ccc7c6)c5)CC4)C3)C(c3ccccc3C(C)C)C2)cc1 (stereo partly shown) , what is its reported log10 of IC50?
output: 0.04

input: Given the molecule COc1ccc(CN2CCN(C3CC4(CCN(c5ccc(C(=O)NS(=O)(=O)c6ccc(OCC7CCC(C)(O)CC7)c([N+](=O)[O-])c6)c(Oc6cnc7[nH]ccc7c6)c5)CC4)C3)[C@H](c3ccccc3C(C)C)C2)cc1 (stereo partly shown) , what is its reported log10 of IC50?
output: -0.25

input: Given the molecule CC(C)c1ccccc1[C@@H]1CN(Cc2ccc3c(c2)OCC3(C)C)CCN1C1CC2(CCN(c3ccc(C(=O)NS(=O)(=O)c4ccc(NC[C@H]5CC[C@](C)(O)CC5)c([N+](=O)[O-])c4)c(Oc4cnc5[nH]cc(F)c5c4)c3)CC2)C1 , what is its reported log10 of IC50?
output: 0.49

input: Given the molecule [2H]C([2H])([2H])Oc1ccc(CN2CCN(C3CC4(CCN(c5ccc(C(=O)NS(=O)(=O)c6ccc(NC[C@H]7CC[C@](C)(O)CC7)c([N+](=O)[O-])c6)c(Oc6cnc7[nH]ccc7c6)c5)CC4)C3)C(c3ccccc3C(C)C)C2)cc1OC([2H])([2H])[2H] (stereo partly shown) , what is its reported log10 of IC50?
output: -0.54

input: Given the molecule COc1cc(CN2CCN(C3CC4(C3)CN(c3ccc(C(=O)NS(=O)(=O)c5ccc(NCC6CCOCC6)c([N+](=O)[O-])c5)c(Oc5cnc6[nH]ccc6c5)c3)C4)[C@H](c3ccccc3C(C)C)C2)ccc1C1CC1 , what is its reported log10 of IC50?
output: -0.07

input: Given the molecule CCc1ccccc1C1CN(Cc2ccc(OC)cc2)CCN1C1CC2(CCN(c3ccc(C(=O)NS(=O)(=O)c4ccc(NC[C@H]5CC[C@](C)(O)CC5)c([N+](=O)[O-])c4)c(Oc4cnc5[nH]ccc5c4)c3)CC2)C1 (stereo partly shown) , what is its reported log10 of IC50?
output: 0.11

input: Given the molecule COc1ccc(CN2CCN(C3CC4(CCN(c5ccc(C(=O)NS(=O)(=O)c6ccc(NC[C@H]7CC[C@](C)(O)CC7)c([N+](=O)[O-])c6)c(Oc6cnc7[nH]cc(F)c7c6)c5)CC4)C3)[C@H](c3ccccc3C(C)C)C2)cc1OC , what is its reported log10 of IC50?
output: -0.89

input: Given the molecule CC(C)c1ccccc1C1CN(Cc2ccccc2)CCN1C1CC2(CCN(c3ccc(C(=O)NS(=O)(=O)c4ccc(NCC5(F)CCOCC5)c([N+](=O)[O-])c4)c(Oc4cnc5[nH]ccc5c4)c3)CC2)C1 (stereo not shown) , what is its reported log10 of IC50?
output: 0.43

input: Given the molecule CC(C)c1ccccc1C1CN(Cc2ccccc2F)CCN1C1CC2(CCN(c3ccc(C(=O)NS(=O)(=O)c4ccc(NC[C@H]5CC[C@](C)(O)CC5)c([N+](=O)[O-])c4)c(Oc4cnc5[nH]ccc5c4)c3)CC2)C1 (stereo partly shown) , what is its reported log10 of IC50?
output: 0.43

input: Given the molecule COC1C2CC3CCC(CN4CCN(C5CC6(C5)CN(c5ccc(C(=O)NS(=O)(=O)c7ccc(NC[C@H]8CC[C@](C)(O)CC8)c([N+](=O)[O-])c7)c(Oc7cnc8[nH]cc(F)c8c7)c5)C6)[C@H](c5ccccc5C(C)C)C4)(C2)CC31 (stereo partly shown) , what is its reported log10 of IC50?
output: 0.04

input: Given the molecule COc1ccc(N2CCCC(N3CCN(C4CC5(CCN(c6ccc(C(=O)NS(=O)(=O)c7ccc(NC[C@H]8CC[C@](C)(O)CC8)c([N+](=O)[O-])c7)c(Oc7cnc8[nH]ccc8c7)c6)CC5)C4)C(c4ccccc4C(C)C)C3)C2)cc1 (stereo partly shown) , what is its reported log10 of IC50?
output: 0.75

input: Given the molecule CC(C)c1ccccc1C1CN(Cc2ccc3c(c2)CCCO3)CCN1C1CC2(CCN(c3ccc(C(=O)NS(=O)(=O)c4ccc(NC[C@H]5CC[C@](C)(O)CC5)c([N+](=O)[O-])c4)c(Oc4cnc5[nH]ccc5c4)c3)CC2)C1 (stereo partly shown) , what is its reported log10 of IC50?
output: -0.22

input: Given the molecule COc1cc(CN2CCN(C3CC4(CCN(c5ccc(C(=O)NS(=O)(=O)c6ccc(NC[C@H]7CC[C@](C)(O)CC7)c([N+](=O)[O-])c6)c(Oc6cnc7[nH]ccc7c6)c5)CC4)C3)[C@H](c3ccccc3C(C)C)C2)ccc1CC(C)C , what is its reported log10 of IC50?
output: 1.04

input: Given the molecule COc1cc(CN2CCN(C3CC4(CCN(c5ccc(C(=O)NS(=O)(=O)c6ccc(NC[C@H]7CC[C@](C)(O)CC7)c([N+](=O)[O-])c6)c(Oc6cnc7[nH]cc(F)c7c6)c5)CC4)C3)[C@H](c3ccccc3C(C)C)C2)cc2c1OCC2(C)C , what is its reported log10 of IC50?
output: -0.06

input: Given the molecule COc1cc(CN2CCN(C3CC4(C3)CN(c3ccc(C(=O)NS(=O)(=O)c5ccc(NC[C@H]6CC[C@](C)(O)CC6)c([N+](=O)[O-])c5)c(Oc5cnc6[nH]cc(F)c6c5)c3)C4)[C@H](c3ccccc3C(C)C)C2)ccc1C1CC1 , what is its reported log10 of IC50?
output: 0.11
